# Tested on: HCT-116
# PROTOCOL TEXT: MTT cytotoxicity assay, colon cancer cells
# Assay type: cell-based, human
# CONDITION PARAMETERS: Selectivity Index from IC50 normal (VERO-B) and IC50 cancer (HCT-116)
ENDPOINT NAME: SI
Respond using a number only.

Prompt: Dear colleague, I am looking for the recorded SI of the following compound: "O=C(/C=C/c1cccc([N+](=O)[O-])c1)[C@H]1[C@H](c2cccc([N+](=O)[O-])c2)[C@H]2CSCN2[C@]12C(=O)Nc1ccccc12"
Response: 1

Prompt: Same question for "O=C(/C=C/c1ccc2ccccc2c1)[C@H]1[C@H](c2ccc3ccccc3c2)[C@H]2CSCN2[C@]12C(=O)Nc1ccccc12" please.
Response: 0.875

Prompt: Next: "O=C(/C=C/c1ccc(F)cc1)[C@H]1[C@H](c2ccc(F)cc2)[C@H]2CSCN2[C@]12C(=O)Nc1ccccc12"
Response: 1.2

Prompt: Ok, now "O=C(/C=C/c1cccs1)[C@H]1[C@H](c2cccs2)[C@H]2CSCN2[C@]12C(=O)Nc1ccccc12"
Response: 1.241

Prompt: Please do the same for N.N.[Cl][Pt][Cl] [Cisplatin, cis-diamineplatinum (II) dichloride, reference compound] as well.
Response: 0.3968

Prompt: Same thing, different compound: "Cc1ccc(/C=C/C(=O)[C@H]2[C@H](c3ccc(C)cc3)[C@H]3CSCN3[C@]23C(=O)Nc2ccccc23)cc1"
Response: 1.475

Prompt: Same again, this time with "O=C(/C=C/c1ccc(F)cc1)[C@H]1[C@H](c2ccc(F)cc2)[C@H]2CSCN2[C@]12C(=O)Nc1ccc(Br)cc12"
Response: 0.9571

Prompt: Same read-out for "O=C(/C=C/c1c(Cl)cccc1Cl)[C@H]1[C@H](c2c(Cl)cccc2Cl)[C@H]2CSCN2[C@]12C(=O)Nc1ccccc12" ?
Response: 1

Prompt: Another compound to look at: "O=C(/C=C/c1cccc(Br)c1)[C@H]1[C@H](c2cccc(Br)c2)[C@H]2CSCN2[C@]12C(=O)Nc1ccccc12"
Response: 1.911

Prompt: Let us now turn to "COc1ccc(/C=C/C(=O)[C@H]2[C@H](c3ccc(OC)cc3)[C@H]3CSCN3[C@]23C(=O)Nc2ccccc23)cc1"
Response: 1.071

These measurements were taken from patent US9822128B1.
